test system: NCI-H1915; test: relative viability (nuclei count vs DMSO), 5 days (fraction); higher = more cells survive; details: first compound 1.265 µM
Doc: threshold 0.3 (exclusive). Items with relative viability beneath it return condition met; others return condition not met.

Cc1sc2c(c1C)C(c1ccc(Cl)cc1)=N[C@@H](CC(=O)OC(C)(C)C)c1nnc(C)n1-2 [JQ1] + COc1cc2c(Oc3ccc(NC(=O)C4(C(=O)Nc5ccc(F)cc5)CC4)cc3F)ccnc2cc1OCCCN1CCOCC1 [Foretinib] (partner 0.25 µM) : condition not met
Cc1sc2c(c1C)C(c1ccc(Cl)cc1)=N[C@@H](CC(=O)OC(C)(C)C)c1nnc(C)n1-2 [JQ1] + Cc1nc(Nc2ncc(C(=O)Nc3c(C)cccc3Cl)s2)cc(N2CCN(CCO)CC2)n1 [Dasatinib] (partner 0.075 µM) : condition met
Cc1sc2c(c1C)C(c1ccc(Cl)cc1)=N[C@@H](CC(=O)OC(C)(C)C)c1nnc(C)n1-2 [JQ1] + Cc1nc(NC(=O)N2CCC[C@H]2C(N)=O)sc1-c1ccnc(C(C)(C)C(F)(F)F)c1 [Alpelisib] (partner 2 µM) : condition not met
Cc1sc2c(c1C)C(c1ccc(Cl)cc1)=N[C@@H](CC(=O)OC(C)(C)C)c1nnc(C)n1-2 [JQ1] + CS(=O)(=O)CCNCc1ccc(-c2ccc3ncnc(Nc4ccc(OCc5cccc(F)c5)c(Cl)c4)c3c2)o1 [Lapatinib] (partner 2 µM) : condition not met
Cc1sc2c(c1C)C(c1ccc(Cl)cc1)=N[C@@H](CC(=O)OC(C)(C)C)c1nnc(C)n1-2 [JQ1] + COc1cccc2cc(-c3nc([C@H]4CC[C@H](C(=O)O)CC4)n4ncnc(N)c34)[nH]c12 [OSI-027] (partner 0.5 µM) : condition met
Cc1sc2c(c1C)C(c1ccc(Cl)cc1)=N[C@@H](CC(=O)OC(C)(C)C)c1nnc(C)n1-2 [JQ1] + NC(=O)Nc1cc(-c2cccc(F)c2)sc1C(=O)N[C@H]1CCCNC1 [AZD7762] (partner 0.2 µM) : condition not met
Cc1sc2c(c1C)C(c1ccc(Cl)cc1)=N[C@@H](CC(=O)OC(C)(C)C)c1nnc(C)n1-2 [JQ1] + CC(=O)Nc1cccc(-n2c(=O)n(C3CC3)c(=O)c3c(Nc4ccc(I)cc4F)n(C)c(=O)c(C)c32)c1 [Trametinib] (partner 0.02 µM) : condition met
Cc1sc2c(c1C)C(c1ccc(Cl)cc1)=N[C@@H](CC(=O)OC(C)(C)C)c1nnc(C)n1-2 [JQ1] + O=C(c1cc(Cc2n[nH]c(=O)c3ccccc23)ccc1F)N1CCN(C(=O)C2CC2)CC1 [Olaparib] (partner 8 µM) : condition met
Cc1sc2c(c1C)C(c1ccc(Cl)cc1)=N[C@@H](CC(=O)OC(C)(C)C)c1nnc(C)n1-2 [JQ1] + CC(C)C[C@H](NC(=O)[C@H](Cc1ccccc1)NC(=O)c1cnccn1)B(O)O [Bortezomib] (partner 0.002 µM) : condition not met
Cc1sc2c(c1C)C(c1ccc(Cl)cc1)=N[C@@H](CC(=O)OC(C)(C)C)c1nnc(C)n1-2 [JQ1] + Cc1cc(Nc2cc(N3CCN(C)CC3)nc(Sc3ccc(NC(=O)C4CC4)cc3)n2)n[nH]1 [Tozasertib] (partner 0.1 µM) : condition met

----------
tested on: NCI-H1437; experiment: relative viability (nuclei count vs DMSO), 5 days (fraction); higher = more cells survive; conditions: first compound 0.02 µM
Known relative viability of a selection of compounds
PROPERTY: relative viability

CC(=O)O[C@@]12CO[C@@H]1C[C@H](O)[C@@]1(C)C(=O)[C@H](O)C3=C(C)[C@@H](OC(=O)[C@H](O)[C@@H](NC(=O)OC(C)(C)C)c4ccccc4)C[C@@](O)([C@@H](OC(=O)c4ccccc4)[C@H]21)C3(C)C [Docetaxel] + CC1(C)CCC(c2ccc(Cl)cc2)=C(CN2CCN(c3ccc(C(=O)NS(=O)(=O)c4ccc(N[C@H](CCN5CCOCC5)CSc5ccccc5)c(S(=O)(=O)C(F)(F)F)c4)cc3)CC2)C1 [Navitoclax] (partner 0.5 µM) : 0.104
CC(=O)O[C@@]12CO[C@@H]1C[C@H](O)[C@@]1(C)C(=O)[C@H](O)C3=C(C)[C@@H](OC(=O)[C@H](O)[C@@H](NC(=O)OC(C)(C)C)c4ccccc4)C[C@@](O)([C@@H](OC(=O)c4ccccc4)[C@H]21)C3(C)C [Docetaxel] + CC(C)C[C@H](NC(=O)[C@H](Cc1ccccc1)NC(=O)c1cnccn1)B(O)O [Bortezomib] (partner 0.002 µM) : 0.104
CC(=O)O[C@@]12CO[C@@H]1C[C@H](O)[C@@]1(C)C(=O)[C@H](O)C3=C(C)[C@@H](OC(=O)[C@H](O)[C@@H](NC(=O)OC(C)(C)C)c4ccccc4)C[C@@](O)([C@@H](OC(=O)c4ccccc4)[C@H]21)C3(C)C [Docetaxel] + COc1cccc2cc(-c3nc([C@H]4CC[C@H](C(=O)O)CC4)n4ncnc(N)c34)[nH]c12 [OSI-027] (partner 0.5 µM) : 0.114
CC(=O)O[C@@]12CO[C@@H]1C[C@H](O)[C@@]1(C)C(=O)[C@H](O)C3=C(C)[C@@H](OC(=O)[C@H](O)[C@@H](NC(=O)OC(C)(C)C)c4ccccc4)C[C@@](O)([C@@H](OC(=O)c4ccccc4)[C@H]21)C3(C)C [Docetaxel] + CC(=O)c1c(C)c2cnc(Nc3ccc(N4CCNCC4)cn3)nc2n(C2CCCC2)c1=O [Palbociclib] (partner 0.5 µM) : 0.156
CC(=O)O[C@@]12CO[C@@H]1C[C@H](O)[C@@]1(C)C(=O)[C@H](O)C3=C(C)[C@@H](OC(=O)[C@H](O)[C@@H](NC(=O)OC(C)(C)C)c4ccccc4)C[C@@](O)([C@@H](OC(=O)c4ccccc4)[C@H]21)C3(C)C [Docetaxel] + COc1cc2c(Oc3ccc(NC(=O)C4(C(=O)Nc5ccc(F)cc5)CC4)cc3F)ccnc2cc1OCCCN1CCOCC1 [Foretinib] (partner 0.25 µM) : 0.188
CC(=O)O[C@@]12CO[C@@H]1C[C@H](O)[C@@]1(C)C(=O)[C@H](O)C3=C(C)[C@@H](OC(=O)[C@H](O)[C@@H](NC(=O)OC(C)(C)C)c4ccccc4)C[C@@](O)([C@@H](OC(=O)c4ccccc4)[C@H]21)C3(C)C [Docetaxel] + Cc1nc(Nc2ncc(C(=O)Nc3c(C)cccc3Cl)s2)cc(N2CCN(CCO)CC2)n1 [Dasatinib] (partner 0.075 µM) : 0.122
CC(=O)O[C@@]12CO[C@@H]1C[C@H](O)[C@@]1(C)C(=O)[C@H](O)C3=C(C)[C@@H](OC(=O)[C@H](O)[C@@H](NC(=O)OC(C)(C)C)c4ccccc4)C[C@@](O)([C@@H](OC(=O)c4ccccc4)[C@H]21)C3(C)C [Docetaxel] + Nc1ncn([C@H]2C[C@H](O)[C@@H](CO)O2)c(=O)n1 [Decitabine] (partner 2 µM) : 0.196

----------
tested on: LXF-289; assay: relative viability (nuclei count vs DMSO), 5 days (fraction); higher = more cells survive; settings: first compound 0.04 µM
PROPERTY: relative viability

Cc1sc2c(c1C)C(c1ccc(Cl)cc1)=N[C@@H](CC(=O)OC(C)(C)C)c1nnc(C)n1-2 [JQ1] + Nc1ncn([C@H]2C[C@H](O)[C@@H](CO)O2)c(=O)n1 [Decitabine] (partner 2 µM) : 0.368
Cc1sc2c(c1C)C(c1ccc(Cl)cc1)=N[C@@H](CC(=O)OC(C)(C)C)c1nnc(C)n1-2 [JQ1] + COc1cccc2cc(-c3nc([C@H]4CC[C@H](C(=O)O)CC4)n4ncnc(N)c34)[nH]c12 [OSI-027] (partner 0.5 µM) : 0.803
Cc1sc2c(c1C)C(c1ccc(Cl)cc1)=N[C@@H](CC(=O)OC(C)(C)C)c1nnc(C)n1-2 [JQ1] + CCNC(=O)c1noc(-c2cc(C(C)C)c(O)cc2O)c1-c1ccc(CN2CCOCC2)cc1 [Luminespib] (partner 0.01 µM) : 0.675
Cc1sc2c(c1C)C(c1ccc(Cl)cc1)=N[C@@H](CC(=O)OC(C)(C)C)c1nnc(C)n1-2 [JQ1] + CS(=O)(=O)N1CCN(Cc2cc3nc(-c4cccc5[nH]ncc45)nc(N4CCOCC4)c3s2)CC1 [Pictilisib] (partner 1 µM) : 0.792

----------
# relative viability values compiled below
system: NCI-H2342; assay: relative viability (nuclei count vs DMSO), 5 days (fraction); higher = more cells survive; conditions: first compound 0.000632 µM
PROPERTY: relative viability

CC(=O)O[C@@]12CO[C@@H]1C[C@H](O)[C@@]1(C)C(=O)[C@H](O)C3=C(C)[C@@H](OC(=O)[C@H](O)[C@@H](NC(=O)OC(C)(C)C)c4ccccc4)C[C@@](O)([C@@H](OC(=O)c4ccccc4)[C@H]21)C3(C)C [Docetaxel] + CCNC(=O)c1noc(-c2cc(C(C)C)c(O)cc2O)c1-c1ccc(CN2CCOCC2)cc1 [Luminespib] (partner 0.01 µM) : 0.677
CC(=O)O[C@@]12CO[C@@H]1C[C@H](O)[C@@]1(C)C(=O)[C@H](O)C3=C(C)[C@@H](OC(=O)[C@H](O)[C@@H](NC(=O)OC(C)(C)C)c4ccccc4)C[C@@](O)([C@@H](OC(=O)c4ccccc4)[C@H]21)C3(C)C [Docetaxel] + COc1cc2c(Oc3ccc(NC(=O)C4(C(=O)Nc5ccc(F)cc5)CC4)cc3F)ccnc2cc1OCCCN1CCOCC1 [Foretinib] (partner 0.25 µM) : 0.948
CC(=O)O[C@@]12CO[C@@H]1C[C@H](O)[C@@]1(C)C(=O)[C@H](O)C3=C(C)[C@@H](OC(=O)[C@H](O)[C@@H](NC(=O)OC(C)(C)C)c4ccccc4)C[C@@](O)([C@@H](OC(=O)c4ccccc4)[C@H]21)C3(C)C [Docetaxel] + O=C(c1cc(Cc2n[nH]c(=O)c3ccccc23)ccc1F)N1CCN(C(=O)C2CC2)CC1 [Olaparib] (partner 8 µM) : 0.456
